Test: Clearance in Sprague-Dawley rat at 1 mg/kg, iv
Format: ADME, organism-based
Conditions: in vivo
Quantity Kind: clearance (mL/min/kg)
// return numeric value only (unit: mL/min/kg, not printed)

QUERY: Using known records, supply clearance for CCc1nc(-c2ccc3c(c2)CC[C@H]3NC(=O)c2cnn(C)c2)no1
RESULT: 2.1

* * *

Experiment: Half life in Beagle dog at 1 mg/kg, iv
Type: ADME, organism-based, Canis lupus familiaris
Settings: in vivo
Quantity Kind: half-life (h)
The reply should contain only the number, in h.

QUERY: Provide one value: measured half-life of CCc1nc(-c2ccc3c(c2)CC[C@H]3NC(=O)c2cnn(C)c2)no1
RESULT: 33.8
